# targetOfAssay: Thromboxane-A synthase (Rattus norvegicus) (UniProt P49430)
# Sequence (whole entry): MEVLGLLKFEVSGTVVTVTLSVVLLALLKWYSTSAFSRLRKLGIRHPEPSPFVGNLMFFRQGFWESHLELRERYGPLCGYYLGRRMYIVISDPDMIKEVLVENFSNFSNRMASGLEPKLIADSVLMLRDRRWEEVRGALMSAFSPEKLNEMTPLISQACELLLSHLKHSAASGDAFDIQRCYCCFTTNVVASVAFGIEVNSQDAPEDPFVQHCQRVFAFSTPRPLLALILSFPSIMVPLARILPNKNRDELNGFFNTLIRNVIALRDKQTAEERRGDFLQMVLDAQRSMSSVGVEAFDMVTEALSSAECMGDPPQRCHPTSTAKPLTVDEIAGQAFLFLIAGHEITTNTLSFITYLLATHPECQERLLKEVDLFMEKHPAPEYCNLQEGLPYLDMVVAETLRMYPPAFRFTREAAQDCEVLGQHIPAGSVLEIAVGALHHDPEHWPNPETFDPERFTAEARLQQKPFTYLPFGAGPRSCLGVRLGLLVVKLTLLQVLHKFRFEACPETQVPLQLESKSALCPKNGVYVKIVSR
# experiment: Tested for the in vitro inhibition of thromboxane-A2 synthase in rat whole blood during clotting at 37 degrees Celsius at >1 uM
# Type: tissue-based
readoutLabel: inhibition (%)

Worked cases, answers included:
[Q] Sample O=C(O)CCCCO/N=C(\c1ccc(Br)cc1)C(Cc1ccccc1)n1ccnc1 (stereo not given) — what was its inhibition?
[A] 15

[Q] Query (compound): CSc1ccc(/C(=N\OCCCCC(=O)O)C(Cc2ccccc2)n2ccnc2)cc1 (stereo not given) ; field requested: inhibition
[A] 49

[Q] Given the compound O=C(O)/C=C/CCO/N=C(\c1ccccc1)C(Cc1ccccc1)n1ccnc1 (stereo not given) , what is its reported inhibition?
[A] 26

A. O=C(O)COCCO/N=C(\c1ccccc1)C(Cc1ccccc1)n1ccnc1 (stereo not given)
B. O=C(O)CCCCO/N=C(\C1CCCCC1)C(CC1CCCCC1)n1ccnc1 (stereo not given)
[Q] Field: entry with larger inhibition (options A / B ). Kindly state the label of the option you pick.
[A] B
(B: 43%, A: 28%)

A. CS(=O)(=O)c1ccc(CC(/C(=N/OCCCCC(=O)O)C2CCCCC2)n2ccnc2)cc1 (stereo not given)
B. CS(=O)(=O)c1ccc(/C(=N\OCCCCC(=O)O)C(Cc2ccccc2)n2ccnc2)cc1 (stereo not given)
C. O=C(O)/C=C/CCCO/N=C(\c1ccccc1)C(Cc1ccccc1)n1ccnc1 (stereo not given)
[Q] Order these by inhibition, descending, and give the full ranking. Write the labels out in the order the request specifies.
[A] C, A, B
(C: 47%, A: 32%, B: 12%)

====

# Species: Homo sapiens
# experiment: Tested in vitro for the umolar concentration required to inhibit U-46,619-induced platelet aggregation in human platelet rich plasma (PRP)
# Assay type: functional
readoutLabel: IC50 (nM)

Solved cases (4 shown):
[Q] Reported IC50 for O=C(O)CCCCO/N=C(\c1ccccc1)C(Cc1ccccc1)n1ccnc1 (stereo not drawn) : what is it?
[A] 370

[Q] Query (molecule): O=C(O)CCCCO/N=C(\C1CCCCC1)C(Cc1ccc(F)cc1)n1ccnc1 (stereo not drawn) ; field requested: IC50
[A] 300

[Q] I am curious: what IC50 value has been reported for O=C(O)CCCCO/N=C(\Cn1ccnc1)C1CCCCC1 ?
[A] 2440

[Q] Would you kindly share the measured IC50 for O=C(O)CCCCO/N=C(/c1ccccc1)C(Cc1ccc(F)cc1)n1ccnc1 (stereo not drawn) ?
[A] 280

I. O=C(O)CCCCO/N=C(\c1ccccc1)C(Cc1ccc(F)cc1)n1ccnc1 (stereo not drawn)
II. O=C(O)CCCCO/N=C(/c1cccnc1)c1cccc(C(F)(F)F)c1
III. O=C(O)CCCCO/N=C(/c1ccccc1)C(Cc1ccccc1)n1ccnc1 (stereo not drawn)
IV. O=C(O)CCCCO/N=C(\C1CCCCC1)C(Cc1ccccc1)n1ccnc1 (stereo not drawn)
[Q] With regard to IC50, arrange the entries in ascending order, please. // list labels; follow requested order
[A] I, IV, III, II
